Test: small-molecule microarray binders of probe aWnt5a, primary screen, biochemical, biotinylated probe, 635/667 nm fluorescence (AID 1113);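 further: score merges 667 nm fluorescence intensity with signal-to-noise per printed feature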
Conditions: higher = more signal
Tag: criterion met if measured composite z-score is not below -0.1, criterion not met if it is.

Query :: # check: composite z-score of `C=CCN1C(=O)[C@@]2(O[C@@H](CCn3cc(CCO)nn3)[C@H]([Si](C)(C)c3ccc(OC)cc3)[C@H]2C)c2cc(N3C(=O)c4cccc5cccc3c45)ccc21` is greater than or equal to -0.1
Result :: criterion met

Query :: # check: composite z-score of `O=C(NCC(F)(F)F)[C@@H]1c2ccccc2C(=O)N(C2Cc3ccccc3C2)[C@H]1c1ccc(CO)cc1` is greater than or equal to -0.1
Result :: criterion not met

Query :: # check: composite z-score of `COC(=O)C(CC#Cc1ccc2c(c1)[C@]1(C(=O)N2)[C@H](C(N)=O)[C@H]2C(=O)O[C@H](c3ccccc3)[C@H](c3ccccc3)N2[C@@H]1c1ccc(O)cc1)C(=O)OC` is greater than or equal to -0.1
Result :: criterion not met

Query :: # check: composite z-score of `C=CCN1C(=O)[C@]2(O[C@H](CCn3cc([C@H](O)c4ccccc4)nn3)[C@@H]([Si](C)(C)c3ccc(OC)cc3)[C@@H]2C)c2cc(N3CCOC3=O)ccc21` is greater than or equal to -0.1
Result :: criterion not met

Query :: # check: composite z-score of `COc1ccc([Si](C)(C)[C@@H]2[C@@H](CC(=O)N3CCC[C@H]3CO)O[C@]3(C(=O)N(Cc4ccc(N5CCC5=O)cc4)c4ccccc43)[C@H]2C)cc1` is greater than or equal to -0.1
Result :: criterion not met

Query :: # check: composite z-score of `O=C(N1CCCCC1)[C@@]1(Cc2ccccc2)N=C(c2ccc(OCCCO)cc2)O[C@H]1c1ccccc1` is greater than or equal to -0.1
Result :: criterion met

Query :: # check: composite z-score of `O=C1O[C@H](c2ccccc2)[C@H](c2ccccc2)N2[C@H]1[C@@H](C(=O)Nc1nc3ccccc3s1)[C@]1(C(=O)Nc3ccc(C#CCCO)cc31)[C@H]2c1ccccc1OCCO` is greater than or equal to -0.1
Result :: criterion met

Query :: # check: composite z-score of `C=C(/C(=C/C[C@H](OC(C)=O)c1cccc(OCCO)c1)c1cc(C(=O)OC)ccc1OC)C(C)C` is greater than or equal to -0.1
Result :: criterion not met

Query :: # check: composite z-score of `COc1ccc([Si](C)(C)[C@H]2[C@H](CCO)O[C@@]3(C(=O)N(Cc4ccc(N5C(=O)c6cccc7cccc5c67)cc4)c4ccccc43)[C@@H]2C)cc1` is greater than or equal to -0.1
Result :: criterion not met

Query :: # check: composite z-score of `CCOC(=O)C[C@H]1[C@H](OC(=O)c2cc3ccccc3oc2=O)[C@@H](NC(=O)c2ccccc2)c2cc(OCCCO)ccc2N1C(=O)Cc1ccc(OC)cc1` is greater than or equal to -0.1
Result :: criterion not met

Query :: # check: composite z-score of `Cc1ccc(S[C@]2(C(=O)NCC(C)C)CC(=O)N(C(C)C)[C@@H]2c2ccc(CO)cc2)cc1` is greater than or equal to -0.1
Result :: criterion not met

Query :: # check: composite z-score of `O=C(NCc1ccccc1)[C@@H]1c2ccccc2C(=O)N(Cc2ccccc2Cl)[C@H]1c1ccc(CO)cc1` is greater than or equal to -0.1
Result :: criterion met

Query :: # check: composite z-score of `C=CCN1C(=O)[C@@]2(O[C@@H](CCn3cc(CCO)nn3)[C@H]([Si](C)(C)c3ccc(OC)cc3)[C@H]2C)c2cc(NC(=O)c3ccc(OC)cc3)ccc21` is greater than or equal to -0.1
Result :: criterion met
